Test system: PC-3 prostate
experiment: NCI-60 one-dose screen, 48 h
assay_context: 10 µM
About 83,000 compounds went through this panel and 20% of them were active in at least one assay; those are over-represented in the sample as a whole. The source made the active and inactive calls. Rule for the calls: active = growth percent below 10; inactive = the rest.
In this exercise, the only acceptable responses are TRUE = active, FALSE = inactive

CN1C/C(=C\c2ccc(O)cc2O)c2[o+]c3cc(O)ccc3cc2C1 ... FALSE
O=C(CN1CCN(c2ncnc3c2cnn3-c2ccccc2)CC1)Nc1nncs1 ... TRUE
CCOC(=O)C1NN(c2ccc(S(N)(=O)=O)cc2)c2nc3nc(-c4cccs4)cc(-c4cccs4)c3c(=O)n21 (centres undefined) ... FALSE

Query :: Lab log entry: `CC(C)c1ccc(C(=O)Nc2sc3c(c2C(N)=O)CCC(=O)C3=O)cc1` — outcome as called in the assay?
Result :: FALSE
